system: Gastric (SNU-16) Patch number (ATCC CRL-5822); test: SRB cytotoxicity assay, gastric cancer cells SNU-16; assay type: cell-based; conditions: Homo sapiens, SNU-16, 72 h incubation
Lab note: cut-off is 20 µM. Strictly less in IC50 is met. Exactly 20 µM or more is not met.

{"columns": ["Molecule", "System under test", "Classification"],
 "data": [
  ["Clc1ccc(-c2csc(NN=C3CCc4cc(Br)ccc43)n2)cc1 [10d]", "Gastric (SNU-16) Patch number (ATCC CRL-5822)", "met"],
  ["NN=C1CCc2cc(Br)ccc21 [compound 4, (5-Bromo-indan-1-ylidene)-hydrazine]", "Gastric (SNU-16) Patch number (ATCC CRL-5822)", "not met"],
  ["Brc1ccc(-c2csc(NN=C3CCc4cc(Br)ccc43)n2)cc1 [10c]", "Gastric (SNU-16) Patch number (ATCC CRL-5822)", "not met"],
  ["Cc1nc(N/N=C2\\CCc3cc(Br)ccc32)sc1/N=N/c1ccccc1", "Gastric (SNU-16) Patch number (ATCC CRL-5822)", "not met"],
  ["Cc1nc(NN=C2CCc3cc(Br)ccc32)sc1N=Nc1ccc(Cl)cc1", "Gastric (SNU-16) Patch number (ATCC CRL-5822)", "not met"],
  ["NC(=S)NN=C1CCc2cc(Br)ccc21", "Gastric (SNU-16) Patch number (ATCC CRL-5822)", "met"],
  ["CC(=O)/C(=N\\Nc1ccc(Cl)cc1)N/N=C1\\CCc2cc(Br)ccc21 [14b]", "Gastric (SNU-16) Patch number (ATCC CRL-5822)", "met"],
  ["CC(=O)C(=NNc1ccccc1)NN=C1CCc2cc(Br)ccc21 [14a]", "Gastric (SNU-16) Patch number (ATCC CRL-5822)", "met"]
]}

Now, please, on to the next molecule.
-- ask Please indicate whether the reported IC50 of `Cc1ccc(N=Nc2sc(NN=C3CCc4cc(Br)ccc43)nc2C)cc1` is strictly below 20 µM.
-- reply met
